Would you kindly list glycan array binding signal (z-score) for each of these binders?
TARGET OF ASSAY: Gal(a1-3)Gal(b1-3)GlcNAc(b1-3)GalNAc
TEST METHOD NOTES: glycan array binding signal (z-score within array); higher = stronger binding
MEASUREMENT CONDITIONS: glycan notation: IUPAC condensed, linker removed
The sample as a whole holds a higher share of the strongest signals than the screen did.

Which measured glycan array binding signal (z-score) value corresponds to F17-L (Escherichia coli) (protein) GPDDYVPSQIAVNTSTLPGVVIGPADAHTYPRVIGELAGTSNQYVFNGGAIALMRGKFTPALPKIGSITYTFHQGNSRDSSDFDIYDIGVSGLGIIIGMAGYWPATPLVPINSSGIYIDPVGANTNPNTYNGATASFGARLFVAFVATGRLPNGYITIPTRQLGTILLEAKRTSLNNKGLTAPVMLNGGRIQVQSQTHHHHHH ?
-0.023

Which measured glycan array binding signal (z-score) value corresponds to SJCP3842 (Schistosoma japonicum) (protein) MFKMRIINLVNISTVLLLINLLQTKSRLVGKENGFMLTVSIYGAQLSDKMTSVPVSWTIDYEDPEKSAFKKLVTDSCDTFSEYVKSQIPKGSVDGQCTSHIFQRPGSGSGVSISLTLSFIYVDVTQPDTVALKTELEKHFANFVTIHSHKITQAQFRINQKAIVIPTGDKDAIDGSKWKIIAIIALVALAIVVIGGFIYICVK ?
0.153

Which measured glycan array binding signal (z-score) value corresponds to FimA-N2 (Actinomyces oris) (protein) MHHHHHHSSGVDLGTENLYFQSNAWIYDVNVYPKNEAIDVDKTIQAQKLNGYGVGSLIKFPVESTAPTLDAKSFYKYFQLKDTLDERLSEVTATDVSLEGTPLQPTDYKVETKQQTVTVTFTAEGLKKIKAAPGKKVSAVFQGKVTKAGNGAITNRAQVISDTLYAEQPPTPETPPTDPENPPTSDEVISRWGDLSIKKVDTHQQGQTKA ?
-0.826
